- targetUnderTest: wildtype feline IL-31 (Feline_IL31_wildtype) (feline)
- Sequence (chain, as listed by the source limits assumed, form in doubt): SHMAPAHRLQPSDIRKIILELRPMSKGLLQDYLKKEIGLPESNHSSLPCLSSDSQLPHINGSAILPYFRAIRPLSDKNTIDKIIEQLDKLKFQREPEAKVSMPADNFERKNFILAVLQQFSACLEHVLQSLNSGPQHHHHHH
- testName: SPR (Biacore), immobilised IL-31, 1:1 fit
outcomeMeasure: log10 koff (log10 of the value in s⁻¹)
In plain terms, each number is the log10 of measured koff in s⁻¹.

Consider the binder Feline 15H05 1.1 FW1 (antibody, V domains shown) VH: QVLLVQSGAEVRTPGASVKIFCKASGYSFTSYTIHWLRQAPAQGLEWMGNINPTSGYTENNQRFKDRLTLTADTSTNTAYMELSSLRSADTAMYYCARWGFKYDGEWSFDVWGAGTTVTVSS VL: DIQMNQSPSSLSASLGDTITVTCRASQGISIWLSWYQQKPGKVPKLLIYKASNLHIGVPSRFSGSGSGTDFTLTISSLEPEDAATYYCLQSQTYPLTFGGGTKLEIK and give its measured log10 koff. -2.54
